All values here come from ChEMBL document CHEMBL4689842.

System: U2OS
Assay comment: Multiplex assay against U2OS
Type: toxicity, cell-based
Condition summary: human, 48 h, 1 µM, compound concentration 1 uM, replicate 1
Assign labels as follows, please: YES for Population Tubulin-Different-Phenotype (%) below 10%; NO for Population Tubulin-Different-Phenotype (%) equal to or exceeding 10%.

CCc1cc2c(cc1CC)CC(NC[C@H](O)c1ccc(O)c3[nH]c(=O)ccc13)C2 = YES
Nc1nc2c(c(N3CCNCC3)n1)CCC1=C2[C@@H]2CCCC[C@@H]2O1 = YES

Answer whether the compound CCn1c(-c2nonc2N)nc2cnc(Oc3cccc(NC(=O)c4ccc(OCCN5CCOCC5)cc4)c3)cc21 [GSK-269962A] has Population Tubulin-Different-Phenotype (%) strictly less than 10%
YES

Answer whether the compound COc1cc2c(NC3CCN(C(C)C)CC3)nc(N3CCC(F)(F)CC3)nc2cc1OCCCN1CCCC1 has Population Tubulin-Different-Phenotype (%) strictly less than 10%
NO

Answer whether the compound CC(=O)c1cc(-c2cc(C(=O)NC3CC3)ccc2C)c2ncccn12 has Population Tubulin-Different-Phenotype (%) strictly less than 10%
NO

Answer whether the compound Cc1cc2c(cc1N1C(=O)c3cccc4c(CCCO)ccc(c34)C1=O)n(C)c(=O)n2C has Population Tubulin-Different-Phenotype (%) strictly less than 10%
NO

---

Tested on: Fibroblast
Assay comment: Multiplex assay against human fibroblast
Format: toxicity, cell-based
Condition summary: 12 h, 10 µM, compound concentration 10 uM, replicate 2
Quantity measured: Population Mitochondria Different-Phenotype (%)
Remember to quote the unit after the number.

Reference set (4 entries):
CCOc1cc(N2CCC(O)CC2)ccc1Nc1ncc2c(n1)N(C1CCCC1)CCC(=O)N2C = 4%
COc1cc2c(Nc3ccc(NC(=O)c4ccccc4)cc3)ncnc2cc1OCCCN1CCOCC1 = 7%
Cl.Cl.NC1(c2ccc(-c3nc4ccn5c(=O)[nH]nc5c4cc3-c3ccccc3)cc2)CCC1 = 40%
CC(C)(C)c1cnc(CSc2cnc(NC(=O)C3CCNCC3)s2)o1 = 50%

With those in mind, consider the next compound.
I would be grateful if you could share the reported Population Mitochondria Different-Phenotype (%) for CCn1c(-c2nonc2N)nc2cnc(Oc3cccc(NC(=O)c4ccc(OCCN5CCOCC5)cc4)c3)cc21 [GSK-269962A] .
97%

---

Test system: Fibroblast
Assay comment: Multiplex assay against human fibroblast
Assay type: toxicity, cell-based
Condition summary: 12 h, 10 µM, compound concentration 10 uM, replicate 2
Quantity measured: Population Mitochondria Different-Phenotype (%)
Answers are plain numbers, in %.

Reference set (7 entries):
COc1cc2c(NC3CCN(C(C)C)CC3)nc(N3CCC(F)(F)CC3)nc2cc1OCCCN1CCCC1 = 97
COc1ccc(NS(=O)(=O)c2sc3ccc(Cl)cc3c2C)cc1N1CCNCC1.Cl = 100
CC(C)N1CCC(C)(C)c2cc(C#Cc3ccc(C(=O)O)cc3)ccc21 = 14
Cc1nc(Cc2cccc(C(F)(F)F)c2)sc1-c1ccc(C(N)=O)nc1 [TP-024n] = 21
CN(C)CCOc1ccc(-c2nc(-c3ccncc3)c(-c3ccc4c(c3)CC/C4=N\O)[nH]2)cc1 = 16
CN(C)C/C=C/C(=O)Nc1cc2c(Nc3ccc(F)c(Cl)c3)ncnc2cc1O[C@H]1CCOC1.O=C(O)/C=C\C(=O)O.O=C(O)/C=C\C(=O)O [AFATINIB DIMALEATE] = 13
c1ccc2oc(-c3csc(C4CCN(Cc5nc6ncccc6[nH]5)CC4)n3)cc2c1 = 0

I would be grateful if you could share the reported Population Mitochondria Different-Phenotype (%) for CC(=O)c1cc(-c2cc(C(=O)NC3CC3)ccc2C)c2ncccn12 .
8

---

System: HEK-293T
Assay comment: Multiplex assay against HEK293T
Assay type: toxicity, cell-based
Condition summary: human, 48 h, 1 µM, compound concentration 1 uM, replicate 1
Quantity measured: Population Fragmented Nuclei (%)
Give bare numbers, in %.

CNc1oc(-c2cccc3ccccc23)nc1C#N = 14
CCCn1c(=O)c2[nH]c(C34CC5CC(CC3C5)C4)nc2n(CCC)c1=O [ROLOFYLLINE] = 20
COc1ccc(NS(=O)(=O)c2sc3ccc(Cl)cc3c2C)cc1N1CCNCC1.Cl = 23

Batch request: Population Fragmented Nuclei (%) for each of the following molecules.
1. Cc1cc2c(cc1N1C(=O)c3cccc4c(CCCO)ccc(c34)C1=O)n(C)c(=O)n2C
2. Nc1ccc(C(=O)Nc2cccc(-c3nc(N4CCOCC4)c4oc5ncccc5c4n3)c2)cn1
3. CC(C)N1CCC(C)(C)c2cc(C#Cc3ccc(C(=O)O)cc3)ccc21
4. COc1cc2c(NC3CCN(C(C)C)CC3)nc(N3CCC(F)(F)CC3)nc2cc1OCCCN1CCCC1
5. CCC(=O)O[C@]1(C(=O)SCF)[C@H](C)C[C@H]2[C@@H]3C[C@H](F)C4=CC(=O)C=C[C@]4(C)[C@@]3(F)[C@@H](O)C[C@@]21C [FLUTICASONE PROPIONATE]
6. CC(=O)c1cc(-c2cc(C(=O)NC3CC3)ccc2C)c2ncccn12

1. 22
2. 27
3. 15
4. 19
5. 14
6. 15

---

Test system: HEK-293T
Assay comment: Multiplex assay against HEK293T
Assay type: toxicity, cell-based
Condition summary: human, 12 h, 1 µM, compound concentration 1 uM, replicate 2
Quantity measured: Population Mitotic Cells (%)
Remember to quote the unit after the number.

Reference set (4 entries):
CCc1cc2c(cc1CC)CC(NC[C@H](O)c1ccc(O)c3[nH]c(=O)ccc13)C2 = 93%
Cc1cn(-c2cc(NC(=O)c3ccc4c(c3)CN(c3cncnc3)C[C@@H]4C)cc(C(F)(F)F)c2)cn1 = 91%
Cc1cc2c(cc1N1C(=O)c3cccc4c(CCCO)ccc(c34)C1=O)n(C)c(=O)n2C = 87%
N#Cc1cnc(Nc2cc(NC[C@H]3CNCCO3)c(C(F)(F)F)cn2)cn1 = 87%

Batch request: Population Mitotic Cells (%) for each of the following molecules.
1. CCOc1cc2ncc(C#N)c(Nc3ccc(OCc4cccc(F)c4)c(Cl)c3)c2cc1NC(=O)/C=C/CN(C)C
2. CN(C)C/C=C/C(=O)Nc1cc2c(Nc3ccc(F)c(Cl)c3)ncnc2cc1O[C@H]1CCOC1.O=C(O)/C=C\C(=O)O.O=C(O)/C=C\C(=O)O [AFATINIB DIMALEATE]
3. CNC(=O)c1cc(Oc2ccc(NC(=O)Nc3cc(C(C)(C)C)nn3-c3ccc4ncccc4c3)c(F)c2)ccn1

89%
83%
88%

---

Tested on: U2OS
Assay comment: Multiplex assay against U2OS
Type: toxicity, cell-based
Condition summary: human, 12 h, 1 µM, compound concentration 1 uM, replicate 2
What Total Cell Count was measured for each of the following?
Answers are plain numbers.

Reference set (7 entries):
N#Cc1cnc(Nc2cc(NC[C@H]3CNCCO3)c(C(F)(F)F)cn2)cn1 [SRA-737] = 142
CC(=O)c1cc(-c2cc(C(=O)NC3CC3)ccc2C)c2ncccn12 = 73
O=C(O)c1ccc2cc(-c3ccc(O)c(C45CC6CC(CC(C6)C4)C5)c3)ccc2c1 [O-DEMETHYLATED ADAPALENE] = 62
CCC(=O)O[C@]1(C(=O)SCF)[C@H](C)C[C@H]2[C@@H]3C[C@H](F)C4=CC(=O)C=C[C@]4(C)[C@@]3(F)[C@@H](O)C[C@@]21C [FLUTICASONE PROPIONATE] = 68
COc1cc2c(Nc3ccc(NC(=O)c4ccccc4)cc3)ncnc2cc1OCCCN1CCOCC1 = 97
CC(C)Oc1ccc(C(=O)N[C@H](CNC(=O)CN(C)C)Cc2ccc(-c3cn4cccc([C@H](C)O)c4n3)cc2)cc1Cl [GSK-923295A] = 153
CNC(=O)c1nn(C)c2c1C(C)(C)Cc1cnc(Nc3ccc(N4CCN(C)CC4)cc3)nc1-2 [MILCICLIB] = 163

With those in mind, consider the next molecule.
I would be grateful if you could share the reported Total Cell Count for CCCn1c(=O)c2[nH]c(C34CC5CC(CC3C5)C4)nc2n(CCC)c1=O [ROLOFYLLINE] .
81

---

Tested on: Fibroblast
Assay comment: Incucyte cell viability with human fibroblast; also: filed as whole numbers so only -1 and 0 and 1 occur
Type: toxicity, cell-based
Condition summary: 0 h, 10 µM, compound concentration 10 uM, replicate number 2, timepoint 0 hours
Quantity measured: Growth Rate
One number for each entry.

Reference set (3 entries):
COc1cc2c(Nc3ccc(NC(=O)c4ccccc4)cc3)ncnc2cc1OCCCN1CCOCC1 = 1
O=C(NOC[C@H](O)CO)c1ccc(F)c(F)c1Nc1ccc(I)cc1F [MIRDAMETINIB] = 0
CS(=O)(=O)N1CCN(Cc2cc3nc(-c4cccc5[nH]ncc45)nc(N4CCOCC4)c3s2)CC1 [PICTILISIB] = 1

I would be grateful if you could share the reported Growth Rate for COc1cc2c(NC3CCN(C(C)C)CC3)nc(N3CCC(F)(F)CC3)nc2cc1OCCCN1CCCC1 .
0
